IC50 at 24 h by entry:
experiment: MTS cytotoxicity assay, 24-h exposure of liver cell line; details: human, HepG2 cells, IC50 HepG2 (cytotoxicity), tested 3 to 400 μM

| Compound | IC50 at 24 h |
| --- | --- |
| O/N=C/c1occc1/C=C\c1ccc(Cl)cc1 [cis,syn-16] | ≤ 100 µM |
| Cc1ccc(/C=C/c2ccc(/C=N\O)o2)cc1 [trans,anti-10] | > 400 µM |
| ON=Cc1cn(Cc2ccc(F)cc2)nn1 [compound 1] | > 400 µM |
| N#Cc1ccc(/C=C\c2ccsc2/C=N\O)cc1 [cis,anti-21] | 182 µM |
| ON=Cc1cn(Cc2ccc(Cl)cc2)nn1 [compound 2] | > 400 µM |
| N#Cc1ccc(/C=C\c2ccsc2/C=N/O)cc1 [cis,syn-21] | ≤ 100 µM |
| Cc1ccc(/C=C/c2ccc(/C=N/O)o2)cc1 [trans,syn-10] | ≤ 100 µM |
| N#Cc1ccccc1/C=C\c1ccc(/C=N/O)s1 [cis,syn-5] | ≥ 400 µM |
| COc1ccc(/C=C/c2ccoc2/C=N\O)cc1 [trans,anti-15] | > 400 µM |
| O=[N+]([O-])c1ccc(-n2cc(C=NO)nn2)cc1 [compound 3] | > 400 µM |
| Cc1ccc(/C=C\c2ccsc2/C=N/O)cc1 [cis,syn-18] | 269 µM |

* * *

system: HepG2; test: MTS cytotoxicity assay, 24-h exposure of liver cell line; settings: read-out: IC50 HepG2 (cytotoxicity), tested 3 to 400 μM
pIC50: −log10 of the molar value.

| Molecule | Target | pIC50 |
| --- | --- | --- |
| N#Cc1ccc(/C=C\c2ccoc2/C=N/O)cc1 [cis,syn-17] | HepG2 | 3.92 |
| Cc1ccc(/C=C/c2ccc(/C=N/O)o2)cc1 [trans,syn-10] | HepG2 | 3.98 |
| N#Cc1ccc(/C=C\c2ccsc2/C=N/O)cc1 [cis,syn-21] | HepG2 | 3.93 |
| O/N=C/c1occc1/C=C\c1ccc(Cl)cc1 [cis,syn-16] | HepG2 | 4.19 |

* * *

biological target: human BChE (Homo sapiens)
Sequence (P06276 29-602): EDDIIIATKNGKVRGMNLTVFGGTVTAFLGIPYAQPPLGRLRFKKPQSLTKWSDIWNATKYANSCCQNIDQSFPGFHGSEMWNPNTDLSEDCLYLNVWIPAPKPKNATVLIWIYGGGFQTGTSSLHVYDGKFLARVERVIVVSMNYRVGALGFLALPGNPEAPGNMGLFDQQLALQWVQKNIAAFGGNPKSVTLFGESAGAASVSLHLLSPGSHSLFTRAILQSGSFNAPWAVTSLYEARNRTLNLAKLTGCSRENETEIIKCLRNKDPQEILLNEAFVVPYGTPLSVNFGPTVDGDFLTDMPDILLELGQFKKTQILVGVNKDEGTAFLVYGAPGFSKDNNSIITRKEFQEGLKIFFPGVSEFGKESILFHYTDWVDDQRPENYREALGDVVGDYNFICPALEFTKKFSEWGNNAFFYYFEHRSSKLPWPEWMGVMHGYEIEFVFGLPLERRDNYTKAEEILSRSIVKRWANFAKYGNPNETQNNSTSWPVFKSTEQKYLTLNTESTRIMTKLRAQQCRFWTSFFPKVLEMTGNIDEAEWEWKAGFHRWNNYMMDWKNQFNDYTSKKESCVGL
Returns: string. Value is 1 if measured Ki is below 50 µM, and 0 if it is greater than or equal to it.

| Molecule | Discrete Label |
| --- | --- |
| N#Cc1ccc(/C=C\c2ccsc2/C=N\O)cc1 [cis,anti-21] | 0 |
| Cc1ccc(/C=C\c2ccsc2/C=N/O)cc1 [cis,syn-18] | 0 |
| N#Cc1ccc(/C=C\c2ccsc2/C=N/O)cc1 [cis,syn-21] | 0 |
| O/N=C\c1ccc(/C=C/c2ccccc2O)s1 [trans,anti-4] | 1 |
| O/N=C/c1occc1/C=C\c1ccc(Cl)cc1 [cis,syn-16] | 0 |
| Cc1ccc(/C=C/c2ccoc2/C=N/O)cc1 [trans,syn-14] | 0 |

* * *

Documented Ki across a set of compounds
target: human AChE (Homo sapiens, UniProt P22303)
Sequence (P22303 32-614): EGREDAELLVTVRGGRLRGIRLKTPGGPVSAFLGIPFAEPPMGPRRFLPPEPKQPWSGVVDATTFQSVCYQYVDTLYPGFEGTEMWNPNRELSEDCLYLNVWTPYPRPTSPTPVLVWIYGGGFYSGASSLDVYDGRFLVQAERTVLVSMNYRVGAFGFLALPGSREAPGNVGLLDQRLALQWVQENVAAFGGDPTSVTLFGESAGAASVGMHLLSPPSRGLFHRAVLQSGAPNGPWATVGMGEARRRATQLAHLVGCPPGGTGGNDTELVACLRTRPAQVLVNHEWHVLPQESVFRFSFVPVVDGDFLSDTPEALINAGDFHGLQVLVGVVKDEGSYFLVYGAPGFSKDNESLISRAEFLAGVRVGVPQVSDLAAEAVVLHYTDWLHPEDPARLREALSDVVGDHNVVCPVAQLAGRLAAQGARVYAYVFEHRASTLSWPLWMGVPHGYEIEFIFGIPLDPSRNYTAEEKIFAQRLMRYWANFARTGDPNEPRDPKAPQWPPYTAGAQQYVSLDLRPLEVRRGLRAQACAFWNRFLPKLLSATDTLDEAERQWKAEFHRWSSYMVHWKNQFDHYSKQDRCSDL
Measured Endpoint: Ki (µM)

| Compound | Target | Measured Endpoint | Recorded Number |
| --- | --- | --- | --- |
| O=[N+]([O-])c1ccc(-n2cc(C=NO)nn2)cc1 [compound 3] | human AChE (Homo sapiens, UniProt P22303) | Ki | 280 |
| O=[N+]([O-])c1ccc(-n2cc(C=Cc3ccc(C=NO)s3)nn2)cc1 [trans-8] | human AChE (Homo sapiens, UniProt P22303) | Ki | 199 |
| O/N=C/c1ccc(/C=C\c2ccc(Cl)cc2)o1 [cis,syn-12] | human AChE (Homo sapiens, UniProt P22303) | Ki | 68 |
| Cc1ccccc1/C=C/c1oc2ccc3ccccc3c2c1/C=N/O [trans,syn-9] | human AChE (Homo sapiens, UniProt P22303) | Ki | 172 |
| ON=Cc1cn(Cc2ccc(Cl)cc2)nn1 [compound 2] | human AChE (Homo sapiens, UniProt P22303) | Ki | 267 |
| ON=Cc1cn(Cc2ccc(F)cc2)nn1 [compound 1] | human AChE (Homo sapiens, UniProt P22303) | Ki | 271 |
| Cc1ccc(/C=C/c2ccc(/C=N/O)o2)cc1 [trans,syn-10] | human AChE (Homo sapiens, UniProt P22303) | Ki | 111 |
